system_tested: Recombinant human GR (Homo sapiens)
Construct: purchased Invitrogen P2816
Sequence (P04150 whole entry): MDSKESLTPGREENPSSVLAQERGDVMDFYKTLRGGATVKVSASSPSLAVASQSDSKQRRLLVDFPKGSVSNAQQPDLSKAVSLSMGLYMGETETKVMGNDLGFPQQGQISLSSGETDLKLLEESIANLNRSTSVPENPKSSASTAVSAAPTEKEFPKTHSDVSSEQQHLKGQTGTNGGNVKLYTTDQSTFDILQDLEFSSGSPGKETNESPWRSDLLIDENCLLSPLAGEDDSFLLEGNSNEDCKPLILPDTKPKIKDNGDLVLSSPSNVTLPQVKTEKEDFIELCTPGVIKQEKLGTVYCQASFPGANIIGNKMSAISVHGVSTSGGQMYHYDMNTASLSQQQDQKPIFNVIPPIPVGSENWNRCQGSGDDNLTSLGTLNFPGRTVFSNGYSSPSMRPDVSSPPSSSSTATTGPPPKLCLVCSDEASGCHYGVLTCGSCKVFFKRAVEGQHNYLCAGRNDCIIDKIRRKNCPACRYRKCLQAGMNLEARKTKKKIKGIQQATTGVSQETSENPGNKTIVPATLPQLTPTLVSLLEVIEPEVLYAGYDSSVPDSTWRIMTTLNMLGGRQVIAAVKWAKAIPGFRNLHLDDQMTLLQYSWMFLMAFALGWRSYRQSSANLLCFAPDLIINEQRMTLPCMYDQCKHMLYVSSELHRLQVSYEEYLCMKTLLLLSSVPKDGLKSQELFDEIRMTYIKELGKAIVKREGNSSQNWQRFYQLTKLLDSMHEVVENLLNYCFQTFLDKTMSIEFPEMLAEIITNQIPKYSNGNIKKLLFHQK
assay_explanation: GR competitor assay (receptor competitor assay by fluorescence polarization, Invitrogen kit P2816)
run_conditions: 20 μM test compound solution (10 μL per well plus 5 μL 4×GS1 and 5 μL 4×GR); relative to 2 mM dexamethasone positive control; ratios of 100% or more are indicated by 100%; read-out: GR Binding ratio (%)
Property: inhibition at 20 µM (stock); scope: individual compounds
Answer format: numeric, % implied, no suffix.

Check out these entries, answers already filled in.
COc1cc(OC(=O)c2ccccc2F)ccc1-c1ccc2c(c1COC(=O)c1ccc(C)s1)C(C)=CC(C)(C)N2    90
CCCC(=O)Oc1ccc(-c2ccc3c(c2COC(=O)c2ccc(C)s2)C(C)=CC(C)(C)N3)c(OC)c1    100
COc1cc(OC(=O)c2cccnc2OC)ccc1-c1ccc2c(c1COC(=O)c1ccc(C)s1)C(C)=CC(C)(C)N2    100
COc1cc(OC(=O)c2cscn2)ccc1-c1ccc2c(c1COC(=O)c1ccc(C)s1)C(C)=CC(C)(C)N2    99
COc1cc(OC(=O)c2ccccc2)ccc1-c1ccc2c(c1COC(=O)c1ccc(C)s1)C(C)=CC(C)(C)N2    91
COC(=O)c1cccc(C(=O)Oc2ccc(-c3ccc4c(c3COC(=O)c3ccc(C)s3)C(C)=CC(C)(C)N4)c(OC)c2)c1    94

Now consider a different compound.
Q. Look up inhibition at 20 µM (stock) for this compound: COc1cc(OC(=O)c2ccoc2)ccc1-c1ccc2c(c1COC(=O)c1ccc(C)cc1)C(C)=CC(C)(C)N2
A. 100
